All figures here come from patent US9133183B2.

Below is a list of entries, each paired with its recorded IC50 value.
biological target: unphosphorylated c-FMS kinase (uFMS, Seq. ID no. 1) (Homo sapiens (Human), UniProt P07333); test: uFMS kinase assay (ADP production coupled to pyruvate kinase/lactate dehydrogenase); format: biochemical; details: enzymatic assay, ATP 500 μM; read-out: uFMS
Sequence (P07333 538-972): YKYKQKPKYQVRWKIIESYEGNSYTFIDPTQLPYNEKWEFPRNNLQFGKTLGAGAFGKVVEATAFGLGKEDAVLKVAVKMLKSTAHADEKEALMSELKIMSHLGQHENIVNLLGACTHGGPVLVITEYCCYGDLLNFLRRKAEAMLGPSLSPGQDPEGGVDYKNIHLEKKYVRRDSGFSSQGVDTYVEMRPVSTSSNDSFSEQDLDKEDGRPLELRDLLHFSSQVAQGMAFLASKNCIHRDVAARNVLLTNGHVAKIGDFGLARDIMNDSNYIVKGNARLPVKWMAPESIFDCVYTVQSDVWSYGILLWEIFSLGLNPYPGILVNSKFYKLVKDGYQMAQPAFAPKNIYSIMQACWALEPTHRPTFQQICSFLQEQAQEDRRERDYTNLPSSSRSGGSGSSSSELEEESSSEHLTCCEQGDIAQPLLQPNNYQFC

Find the measured IC50: item CCN1CCN(C(=O)Nc2ccc(Oc3ccnc(-c4ccc(C5CCN(C)CC5)cc4)c3)c(C)n2)C1=O , target or system unphosphorylated c-FMS kinase (uFMS, Seq. ID no. 1) (Homo sapiens (Human), UniProt P07333).
< 10 nM

###

Target: unphosphorylated PDGFRβ kinase (uPDGFRβ, Seq. ID No. 3) (Homo sapiens (Human))
Sequence (P09619 557-1106): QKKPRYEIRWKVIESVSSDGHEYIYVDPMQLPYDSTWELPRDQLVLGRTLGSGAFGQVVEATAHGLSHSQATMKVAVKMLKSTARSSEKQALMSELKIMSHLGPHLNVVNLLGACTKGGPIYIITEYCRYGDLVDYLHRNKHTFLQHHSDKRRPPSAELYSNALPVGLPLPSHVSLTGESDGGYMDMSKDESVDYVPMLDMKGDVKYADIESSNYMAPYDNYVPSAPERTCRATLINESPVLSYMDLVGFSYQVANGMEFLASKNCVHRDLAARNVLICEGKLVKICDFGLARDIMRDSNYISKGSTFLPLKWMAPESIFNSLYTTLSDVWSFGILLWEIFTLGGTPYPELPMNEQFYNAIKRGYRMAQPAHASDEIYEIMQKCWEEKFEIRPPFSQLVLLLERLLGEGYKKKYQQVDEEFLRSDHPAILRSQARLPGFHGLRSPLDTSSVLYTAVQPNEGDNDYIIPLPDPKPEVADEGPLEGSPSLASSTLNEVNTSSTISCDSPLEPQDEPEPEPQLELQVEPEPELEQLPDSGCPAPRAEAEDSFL
Test: Unphosphorylated PDGFRβ kinase assay (coupled pyruvate kinase/lactate dehydrogenase)
Settings: enzymatic assay, ATP 500 μM
Protocol: Unphosphorylated PDGFRβ (uPDGFRβ) Kinase (Seq. ID No. 3) Assay Activity of unphosphorylated PDGFRβ kinase (uPDGFRβ, Seq. ID No. 3) was determined by following the production of ADP from the kinase reaction with ATP and poly E4Y as substrates through coupling with the pyruvate kinase/lactate dehydrogenase system (e.g., Schindler et al. Science (2000) 289: 1938-1942). In this assay, the oxidation of NADH (thus the decrease at A340 nm) was continuously monitored spectrophometrically. […]
Below is a list of entries, each paired with its recorded IC50 value.

Consider the worked cases shown below.
* CC(=O)Nc1cc(Oc2ccc(NC(=O)N3CCN(C4CCOCC4)C3=O)nc2)ccn1 [Example 119] | 100 to 1000 nM
* Cn1cc(-c2cc(Oc3cc(F)c(NC(=O)N4CCN(C5CCCCC5)C4=O)cc3Cl)ccn2)cn1 [Example 107] | 100 to 1000 nM
* COCCN1CCN(C(=O)Nc2ccc(Oc3ccnc(-c4cnn(C)c4)c3)c(C)n2)C1=O [Example 18] | > 1000 nM

Here's the next entry for you.
Need IC50, item Cc1cc(NC(=O)N2CCN(C3CCCC3)C2=O)nc(C)c1Oc1ccnc(-c2cnn(C)c2)c1 [Example 72]
10 to 100 nM

###

test system: osteoclast precursors; experiment: Osteoclast tartrate-resistant acid phosphatase assay; format: cell-based; conditions: Osteoclast, 7-14 days, RANKL and M-CSF
MEASURED PARAMETER: IC50

* Cc1ncc(-c2cc(Oc3ccc(NC(=O)N4CCN(C5CCOCC5)C4=O)nc3C)ccn2)s1 [Example 66] | 100 to 1000 nM
* Cn1cnc(-c2cc(Oc3ccc(NC(=O)N4CCN(C5CCOCC5)C4=O)nc3)ccn2)c1 [Example 83] | 10 to 100 nM
* CCc1nc(NC(=O)N2CCN(C3CC3)C2=O)ccc1Oc1ccnc(-c2cnn(C)c2)c1 [Example 58] | 10 to 100 nM
* Cn1cc(-c2cc(Oc3ccc(NC(=O)N4CCN(C5CCCCC5)C4=O)nc3)ccn2)cn1 [Example 15] | < 10 nM
* [2H]C([2H])([2H])n1cc(-c2cc(Oc3ccc(NC(=O)N4CCN([C@@H]5CCOC5)C4=O)nc3C)ccn2)cn1 [Example 37] | 10 to 100 nM
* COCCCN1CCN(C(=O)Nc2ccc(Oc3ccnc(-c4cnn(C)c4)c3)c(C)n2)C1=O [Example 19] | 10 to 100 nM

Need IC50, item Cc1nc(NC(=O)N2CCN(C3CC3)C2=O)ccc1Oc1ccnc(-c2cnn(C)c2)c1 [Example 47]
< 10 nM

Need IC50, item Cn1cc(-c2cc(Oc3ccc(NC(=O)N4CCN(C5CCOCC5)C4=O)nc3)ccn2)cn1 [Example 1]
10 to 100 nM

Need IC50, item COCCN1CCN(C(=O)Nc2cc(F)c(Oc3ccnc(-c4cnn(C)c4)c3)cc2F)C1=O [Example 98]
10 to 100 nM
